TARGET ENTITY: PfENT1 S48C (Plasmodium falciparum, UniProt Q8IDM6, S48C)
Construct: expressed in transfected cells; host or cells: purine auxotrophic yeast (ade2Δ, fui1Δ), pCM189 episomal plasmid
Sequence (Q8IDM6 whole entry S48C): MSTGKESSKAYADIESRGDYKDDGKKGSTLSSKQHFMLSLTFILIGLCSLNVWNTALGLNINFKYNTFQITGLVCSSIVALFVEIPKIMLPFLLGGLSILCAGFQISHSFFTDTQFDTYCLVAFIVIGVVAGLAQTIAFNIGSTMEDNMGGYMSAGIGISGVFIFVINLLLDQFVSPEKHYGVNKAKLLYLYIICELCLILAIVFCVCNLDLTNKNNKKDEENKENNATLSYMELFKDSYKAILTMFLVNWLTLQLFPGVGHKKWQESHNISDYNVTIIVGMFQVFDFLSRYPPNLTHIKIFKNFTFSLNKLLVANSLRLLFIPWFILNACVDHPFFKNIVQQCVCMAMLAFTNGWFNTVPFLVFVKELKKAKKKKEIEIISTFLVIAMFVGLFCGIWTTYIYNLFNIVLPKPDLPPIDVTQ
ASSAY DETAILS: [3H]adenosine uptake assay, competition with cold uridine
Format: cell-based
REPORTED METRIC: IC50 (µM)
Write it as a number; the unit µM goes unstated.

Quick note, IC50 for O=c1ccn([C@@H]2O[C@H](CO)[C@@H](O)[C@H]2O)c(=O)[nH]1 [Uridine, uridine] landed at 801

---

TARGET ENTITY: WT PfENT1 (Plasmodium falciparum, UniProt Q8IDM6)
Construct: expressed in transfected cells; host or cells: purine auxotrophic yeast (ade2Δ, fui1Δ), pCM189 episomal plasmid
Sequence (Q8IDM6 whole entry): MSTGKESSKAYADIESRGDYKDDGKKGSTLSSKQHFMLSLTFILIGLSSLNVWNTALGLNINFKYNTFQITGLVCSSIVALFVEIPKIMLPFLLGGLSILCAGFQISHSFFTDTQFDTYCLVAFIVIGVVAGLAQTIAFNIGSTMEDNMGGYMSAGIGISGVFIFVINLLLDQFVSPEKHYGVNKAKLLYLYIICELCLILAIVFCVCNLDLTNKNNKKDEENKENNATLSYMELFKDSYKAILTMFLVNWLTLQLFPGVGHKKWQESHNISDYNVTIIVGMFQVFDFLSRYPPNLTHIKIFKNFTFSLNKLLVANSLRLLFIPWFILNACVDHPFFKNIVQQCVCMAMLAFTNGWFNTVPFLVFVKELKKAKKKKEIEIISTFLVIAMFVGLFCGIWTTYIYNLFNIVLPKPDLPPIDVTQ
ASSAY DETAILS: [3H]adenosine uptake assay, competition with cold uridine
Assay type: cell-based
REPORTED METRIC: IC50 (µM)
Write it as a number; the unit µM goes unstated.

Quick note, IC50 for "O=c1ccn([C@@H]2O[C@H](CO)[C@@H](O)[C@H]2O)c(=O)[nH]1" landed at 997

Values from paper PMC10729961
